# target.system: Ba/F3-Tel-KDR cells (Homo sapiens)
# Construct: fused on or other part: N-terminal oligomerising part of TEL (ETV6) fused to the tyrosine kinase domain of KDR; P41212 (Transcription factor ETV6)
# Sequence (P35968 whole entry, change not shown, the tested form may be a part): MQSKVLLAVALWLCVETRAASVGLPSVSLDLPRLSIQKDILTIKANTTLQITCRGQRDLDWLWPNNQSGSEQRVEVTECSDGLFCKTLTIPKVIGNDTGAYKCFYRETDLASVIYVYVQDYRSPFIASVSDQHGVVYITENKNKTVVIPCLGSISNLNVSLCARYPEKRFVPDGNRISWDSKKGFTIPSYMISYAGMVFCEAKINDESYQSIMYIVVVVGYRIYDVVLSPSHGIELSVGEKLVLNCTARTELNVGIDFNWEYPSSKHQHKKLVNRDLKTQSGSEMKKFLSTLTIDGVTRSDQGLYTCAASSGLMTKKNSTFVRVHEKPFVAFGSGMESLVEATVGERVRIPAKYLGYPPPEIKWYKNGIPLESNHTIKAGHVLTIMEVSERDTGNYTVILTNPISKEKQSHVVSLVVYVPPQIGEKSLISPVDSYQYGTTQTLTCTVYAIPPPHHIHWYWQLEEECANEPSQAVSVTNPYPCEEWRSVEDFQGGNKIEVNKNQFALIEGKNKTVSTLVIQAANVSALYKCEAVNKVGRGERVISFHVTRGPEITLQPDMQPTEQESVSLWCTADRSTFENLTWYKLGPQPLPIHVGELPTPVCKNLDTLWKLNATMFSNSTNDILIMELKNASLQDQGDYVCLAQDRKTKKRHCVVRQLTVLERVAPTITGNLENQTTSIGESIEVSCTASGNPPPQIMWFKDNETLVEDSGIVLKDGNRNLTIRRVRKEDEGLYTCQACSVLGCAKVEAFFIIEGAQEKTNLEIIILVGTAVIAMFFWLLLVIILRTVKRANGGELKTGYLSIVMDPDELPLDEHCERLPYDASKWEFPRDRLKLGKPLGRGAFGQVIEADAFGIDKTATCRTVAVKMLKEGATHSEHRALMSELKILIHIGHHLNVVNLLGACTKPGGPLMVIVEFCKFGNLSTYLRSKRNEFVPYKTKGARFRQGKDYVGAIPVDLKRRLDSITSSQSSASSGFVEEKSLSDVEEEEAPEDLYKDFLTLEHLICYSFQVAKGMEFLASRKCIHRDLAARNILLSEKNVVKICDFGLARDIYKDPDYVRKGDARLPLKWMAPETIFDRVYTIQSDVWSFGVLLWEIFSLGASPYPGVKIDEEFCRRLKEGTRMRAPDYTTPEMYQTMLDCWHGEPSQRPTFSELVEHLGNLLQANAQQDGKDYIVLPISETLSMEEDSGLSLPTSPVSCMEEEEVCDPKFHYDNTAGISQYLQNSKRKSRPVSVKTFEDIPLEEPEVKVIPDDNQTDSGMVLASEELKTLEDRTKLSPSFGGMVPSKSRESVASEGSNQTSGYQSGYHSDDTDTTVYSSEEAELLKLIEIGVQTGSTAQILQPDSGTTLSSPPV
# protocol.details: Ba/F3-Tel-KDR cell viability inhibition assay (CellTiter-Glo)
# Assay type: cell-based
# stated.conditions: 48 hour incubation, read-out: IC50 (the source's name)
Readings of log10(GI50) for the listed compounds
Remember, log10 of GI50, in nM.

Take a look at these entries with their results.
>  <compound>
Cc1cc2cc(Oc3ncnc4c3CCNC4)ccc2n1C(=O)Nc1cccc(C(F)(F)F)c1

>  <target.system>
Ba/F3-Tel-KDR cells (Homo sapiens)

>  <log10(GI50)>
1.94

$$$$
>  <compound>
Cc1c(Oc2ncnc3c2C[C@H](C)NC3)ccc2c1ccn2C(=O)Nc1cc(C2CC2)on1

>  <target.system>
Ba/F3-Tel-KDR cells (Homo sapiens)

>  <log10(GI50)>
1.98

$$$$
>  <compound>
CCCC(=O)N1Cc2ncnc(Oc3ccc4c(ccn4C(=O)Nc4cc(C5CC5)on4)c3)c2C[C@@H]1C

>  <target.system>
Ba/F3-Tel-KDR cells (Homo sapiens)

>  <log10(GI50)>
0.48

$$$$
>  <compound>
Cn1ccc2c(NC(=O)n3ccc4cc(Oc5ncnc6c5CNC6)ccc43)cccc21

>  <target.system>
Ba/F3-Tel-KDR cells (Homo sapiens)

>  <log10(GI50)>
1.00

$$$$
>  <compound>
O=C(Nc1cc(F)cc(C(F)(F)F)c1)n1ccc2cc(Oc3ncnc4c3CCNC4)ccc21

>  <target.system>
Ba/F3-Tel-KDR cells (Homo sapiens)

>  <log10(GI50)>
2.52

$$$$
>  <compound>
C[C@H]1Cc2c(ncnc2Oc2ccc3c(ccn3C(=O)Nc3cc(C4(C)CC4)n[nH]3)c2F)CN1

>  <target.system>
Ba/F3-Tel-KDR cells (Homo sapiens)

>  <log10(GI50)>
0.00

$$$$
>  <compound>
O=C(Nc1cccc(C(F)(F)F)c1)n1ccc2c(F)c(Oc3ncnc4c3CCNC4)ccc21

>  <target.system>
Ba/F3-Tel-KDR cells (Homo sapiens)

>  <log10(GI50)>
0.95

$$$$
>  <compound>
CCN1Cc2ncnc(Oc3ccc4c(ccn4C(=O)Nc4cc(C5(C(F)(F)F)CC5)on4)c3)c2C[C@@H]1C

>  <target.system>
Ba/F3-Tel-KDR cells (Homo sapiens)

>  <log10(GI50)>
0.30

$$$$
>  <compound>
CNCc1cc(Oc2ccc3c(ccn3C(=O)Nc3cc(C4CC4)n(C4CC4)n3)c2)ncn1

>  <target.system>
Ba/F3-Tel-KDR cells (Homo sapiens)

>  <log10(GI50)>
0.00

$$$$
>  <compound>
COCc1cc(Oc2ccc3c(ccn3C(=O)Nc3ccc(F)c(C(F)(F)F)c3)c2)ncn1

>  <target.system>
Ba/F3-Tel-KDR cells (Homo sapiens)

>  <log10(GI50)>
0.78

$$$$

Asked: Observed log10(GI50) on Ba/F3-Tel-KDR cells (Homo sapiens) for CS(=O)(=O)NC1CCN(Cc2cc(Oc3ccc4c(ccn4C(=O)Nc4cccc(C(F)(F)F)c4)c3)ncn2)CC1 , please.
Given back: 0.30

Asked: Try O=C(Nc1cccc(C(F)(F)F)c1F)n1ccc2cc(Oc3ncnc4c3CNC4)ccc21 next.
Given back: 0.48

Asked: Try O=C(Nc1cc(-c2ccccc2)[nH]n1)n1ccc2cc(Oc3ncnc4c3CCNC4)ccc21 next.
Given back: 1.04

Asked: Try O=C(Nc1cncc(C(F)(F)F)c1)n1ccc2cc(Oc3ncnc4c3CCNC4)ccc21 next.
Given back: 2.03

Asked: Try O=C(Nc1cccc(C(F)(F)F)c1)N1CCc2cc(Oc3cc(CN4CCOCC4)ncn3)ccc21 next.
Given back: 0.90
